The measured values listed here are drawn from the DeepSol protein solubility set.

# Experiment Notes: soluble on expression in E. coli; label from the status in PepcDB or PDB records
Measure: soluble on expression in E. coli

See these solved cases before continuing.
Query: What does the data say about its soluble on expression in E. coli? Entry: `MGSDKIHHHHHHMNKQPLAFRMRPKKIEDVVGQQHLIGKGKIIWRMVQAHRLSSMILYGEPGTGKTSIASAIAGSTELSFRILNAATDGKKELQEVAEEGKMSGSVILLLDEIHRLDKTKQDFLLPHLESGRIVLIGATTENPYLSVTPAIRSRTQIFHVEALSEKDIKTAINRALSDKENGLGNYNIKLDDRAKNHLSTATNGDLRSALNGLELAVLSTKAVGKEKEIHITLPIIEETIQRKSMSGDKNGDAHYDVISAFQKSIRGSDADAGIYYLGRILEAGDLTIAARRLLVIAYEDVGLANPNAAAHAVQAVTAALQLGLPEARIPLANAVIELALSPKSNSAYGAINSAIGDIEKGNTGDVPIHLKNTRNWGKTKNQ`
Reply: not soluble

Query: # query: soluble on expression in E. coli of entry `MKIAKFTRINAHQVQNCNNEKIAHERKMEKVFEFLAEDKKTFEASNSFERTLIFCKHDKSAMAALLTLYDSKTIFGTFSEYLITNDKTVLERERVQVNNGEKMLAICNMDFMDDFQLGLAKHYIFLDFPLKIIGIKKMLDRLNTMAQQSEQVIDIDFLTTNMDARIYQEALNMEMTMRGSQVPKWLTELVNGSSELPEDPDVIFVRTCKPDLEPLTAKPAKLPSPRQPESKPSNEASSSQLEPTSASQPPSRVDQILKSRSGLPTKDADSSSEVAPRKRKPKSPAFDIYNMKRQPDGTFLIPSHVMGFCNEDLSEDDEEPDPEYDSEEEYNWMYKLDVW`
Reply: not soluble

Query: Please look up its soluble on expression in E. coli: `MSTTAYQPIAECGATTQSEAAAYQKRWLVANDAGQWLNRDLCPRLAEVSVELRMGYLVLKAPGMLRLDIPLDVIEDDDSVRYQMLVGEQTVDVVDEGELAAAWISNHAGVPCRILKVHPDMAEVRWPSLEHHHHHH`
Reply: soluble

Query: Any idea what soluble on expression in E. coli was measured for `MGSDKIHHHHHHMNLLPLFLAVAEEDNFRAAADRLGVTRSAVSQGIRRLEDAFGTTLVTRTTRSVRLTEAGERLREALSQPLSDIGTALDRVAGEDEPRGLLRIAVTSIAEQFLSGPLIASFAQAHPKVAIDVTVTDEEFDIVAAGFDAGVRLGEVIEQDMIAVPLTGDQRELAVAAPTYLAVRGTPAHPRELVHHRCIGWRRAPNVAPYRWEFEENGVPFDVAVEPQITTNDLRFMLRSALCGAGITFATEETFRPFVETGELVPLLQDFLPPFPGFFLYFPQRRNMTPKMRALIEHVRRWR` ?
Reply: not soluble

Query: Fill in the blank: the reported soluble on expression in E. coli of `MSSNAQVRPPLPPFTRESAIEKIRLAEDGWNSRDPERVSLAYTLDTQWRNRAEFAHNREEAKAFLTRKWAKELDYRLIKELWAFTDNRIAVRYAYEWHDDSGNWFRSYGNENWEFDEQGLMARRFACINDMPIKAQERKFHWPLGRRPDDHPGLSELGLLEHHHHHH` is ____.
Reply: soluble

Query: Sample `MITVNTLQKMKAAGEKIAMLTAYESSFAALMDDAGVDVLLVGDSLGMAVQGRQSTLPVSLRDMCYHTECVARGAKNAMIVSDLPFGAYQQSKEQAFAAAAELMAAGAHMVKLEGGVWMAETTEFLQMRGIPVCAHIGLTPQSVFAFGGYKVQGRGGKAQALLNDAKAHDDAGAAVVLMECVPAELAKKVTESVSCPTIGIGAGVDCDGQVLVMHDMLGIFPGKTAKFVKNFMQGQSSIQAAVRAYVAEVKAKTFPAAEHIFAD` — what was its soluble on expression in E. coli?
Reply: not soluble

Query: State the recorded soluble on expression in E. coli for this entry: `MGHHHHHHSAISVWRAVDYVRMPWKNGGGSTEEITRDAGTGLEGFGWRLSIADIGESGGFSSFAGYQRVITVIQGAGMVLTVDGEEQRGLLPLQPFAFRGDSQVSCRLITGPIRDFNLIYSPERYHARLQWVDGVQRFFSTAQTVLVFSVADEVKVLGEKLGHHDCLQVDGNAGLLDISVTGRCCLIELTQRG`
Reply: soluble

Query: Tell me the measured soluble on expression in E. coli of `SASNYPAYMDNYLKEVINQVEEETGYNLLTTGMDVYTNVDQEAQKHLWDIYNTDEYVAYPDDELQVASTIVDVSNGKVIAQLGARHQSSNVSFGINQAVETNRDWGSTMKPITDYAPALEYGVYDSTATIVHDEPYNYPGTNTPVYNWDRGYFGNITLQYALQQSRNVPAVETLNKVGLNRAKTFLNGLGIDYPSIHYSNAISSNTTESDKKYGASSEKMAAAYAAFANGGTYYKPMYIHKVVFSDGSEKEFSNVGTRAMKETTAYMMTDMMKTVLSYGTGQNAYLAWLPQAGKTGTSNYTDEEIENHIKTSQFVAPDELFAGYTRKYSMAVWTGYSNRLTPLVGNGLTVAAKVYRSMMTYLSEGSNPEDWNIPEGLYRNGEFVFKNGAR` , please.
Reply: soluble

Further cases:
Query: What does the data say about its soluble on expression in E. coli? Entry: `MKMKTDDTFNHAHADRLLLPNASLLGEVENMLADGRSVMLKATGNSMLPFIVGGRDSVLVRRPSGIQALQVWQIALAHLPDSRYVLHRIVRIHGAEIVLMGDGNLKETESCRFPDITGVVTRIIRNGRYVDCDAGGERCKAKIWGRLLPIRRYLLYIYRRVWI`
Reply: not soluble

Query: Quick check: soluble on expression in E. coli of `MPPLFHPHLVNGPFDDPGLYVDFLFERRAVLFDLGDTAPLPPRKVLRLSHIFVSHTHVDHFIGFDRVVRLCLGREKRLHLLGPPGFVDQVAARLAGYTWNLVETFPTDFTLAAAELHPDGSVHSAEFHCLAAFSRDNERRDRAAGGVLLDEEAFRVRSVFLDHGIPCLAFALEEKNHVHILKNRLREAGLPTGAWLAELKRAILGGRDDGEPFRAWWRDGGKECEAWFPLGELRERFTKTVAGQKIVYVTDAAPTPENRRLIVELAAGADYLFIEAPFLDEERERAGDRCHLTARIAGELGRDAGVARVVPFHFSPRYMGRESLLRDEVERAFRGLEHHHHHH` ?
Reply: not soluble

Query: For the sequence `MGSDKIHHHHHHMAQVLWIIQIISKGLVRTLRFKAHILRMILLGSLGVAIHVSVVNAAVTDNSLPQESIPLVQGFIDAVKAHDRQAIADYMAYPIKRTNPIPAINTPEELLKRFDQVFDPEILETIAQSQVEADWQAMGWRGIMLGSGTIWMDFDGKITAVNYQTPAETKLKAELIANQKTGLHESVSQFVSPELAWQTAKFTIRVDNMGNSQYRYASWAKGKPLSEKPDLVLNQGKLVFDGSGGNHSFQFTSGPYLYVCDVIVLGTSDSPIGELVVFKHDRVLLREPAIKAE` , what soluble on expression in E. coli is on record?
Reply: not soluble
